- TEST_SYSTEM: Human recombinant MAO-B (Homo sapiens)
- Construct: host or cells: insect cells
- Sequence (P27338 whole entry): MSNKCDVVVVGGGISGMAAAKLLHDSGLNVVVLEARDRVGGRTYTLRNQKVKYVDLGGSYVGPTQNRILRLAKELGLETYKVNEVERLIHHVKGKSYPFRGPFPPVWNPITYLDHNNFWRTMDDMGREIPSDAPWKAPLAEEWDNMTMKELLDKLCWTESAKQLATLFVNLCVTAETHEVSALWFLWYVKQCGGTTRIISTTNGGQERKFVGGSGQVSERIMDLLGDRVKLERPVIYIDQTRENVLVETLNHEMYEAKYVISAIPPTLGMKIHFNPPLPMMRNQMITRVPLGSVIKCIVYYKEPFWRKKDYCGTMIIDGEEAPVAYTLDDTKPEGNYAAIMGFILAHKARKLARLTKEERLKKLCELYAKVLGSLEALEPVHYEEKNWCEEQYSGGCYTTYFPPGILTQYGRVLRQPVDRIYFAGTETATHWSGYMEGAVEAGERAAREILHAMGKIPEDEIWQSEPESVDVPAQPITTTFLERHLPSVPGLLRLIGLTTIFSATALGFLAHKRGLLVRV
- PROCEDURE_TEXT: MAO-B enzymatic assay (fluorometric, kynuramine)
- Format: biochemical
- STATED_CONDITIONS: human recombinant MAO-B expressed in insect cells; kynuramine substrate; values given as bins; read-out: MAO-B (pEC50) (converted)
Recorded EC50 for the following compounds

Past entries and their recorded results:
**Q:** Field: EC50 (Human recombinant MAO-B (Homo sapiens)). Entry: CCOC(=O)c1cnc2cc(OCc3cccc(OC)c3)ccc2c1
**A:** < 100 nM

**Q:** Field: EC50 (Human recombinant MAO-B (Homo sapiens)). Entry: CCOC(=O)c1cnc2cc(OCCc3cccc(F)c3)ccc2c1
**A:** < 100 nM

**Q:** Field: EC50 (Human recombinant MAO-B (Homo sapiens)). Entry: CC(C)(O)Cc1cnc2cc(OCc3cccc(Cl)c3)ccc2c1
**A:** 1000 to 10000 nM

Further cases:
**Q:** Field: EC50 (Human recombinant MAO-B (Homo sapiens)). Entry: Cc1nc2cc(OCc3cccc(Cl)c3)ccc2cc1C(C)(C)O
**A:** < 100 nM

**Q:** Field: EC50 (Human recombinant MAO-B (Homo sapiens)). Entry: CC(C)(O)c1cnc2cc(OCc3cccc(F)c3)cnc2c1
**A:** < 100 nM

**Q:** Field: EC50 (Human recombinant MAO-B (Homo sapiens)). Entry: CCOC(=O)Cc1cnc2cc(OCc3ccc(F)cc3)ccc2c1
**A:** 100 to 1000 nM

**Q:** Field: EC50 (Human recombinant MAO-B (Homo sapiens)). Entry: CC(C)(O)c1cnc2cc(OCc3ccc(F)c(F)c3)cnc2c1
**A:** < 100 nM

**Q:** Field: EC50 (Human recombinant MAO-B (Homo sapiens)). Entry: CC(O)c1cnc2cc(OCc3ccc(F)cc3)ccc2c1 (stereo not shown)
**A:** < 100 nM

**Q:** Field: EC50 (Human recombinant MAO-B (Homo sapiens)). Entry: CCOC(=O)c1cc2ccc(OCc3ccc(F)cc3)cc2nc1C
**A:** < 100 nM

**Q:** Field: EC50 (Human recombinant MAO-B (Homo sapiens)). Entry: OCc1cnc2cc(OCc3cc(F)c(F)c(F)c3)ccc2c1
**A:** < 100 nM

**Q:** Field: EC50 (Human recombinant MAO-B (Homo sapiens)). Entry: CCOC(=O)c1cc2ccc(OCc3ccc(F)c(Cl)c3)cc2nc1C
**A:** < 100 nM

**Q:** Field: EC50 (Human recombinant MAO-B (Homo sapiens)). Entry: Cc1nc2cc(OCc3cccc(F)c3)ccc2cc1C(C)(C)O
**A:** < 100 nM

**Q:** Field: EC50 (Human recombinant MAO-B (Homo sapiens)). Entry: CCOC(=O)c1cnc2cc(OCc3ccc(F)cc3)ccc2c1
**A:** < 100 nM

**Q:** Field: EC50 (Human recombinant MAO-B (Homo sapiens)). Entry: CCOC(=O)c1cnc2cc(OCc3ccc(F)c(F)c3)ccc2c1
**A:** < 100 nM

**Q:** Field: EC50 (Human recombinant MAO-B (Homo sapiens)). Entry: NC(=O)CC1Cc2ccc(OCc3cccc(Cl)c3)cc2NC1=O (stereo not shown)
**A:** < 100 nM

**Q:** Field: EC50 (Human recombinant MAO-B (Homo sapiens)). Entry: CCOC(=O)c1cc2ccc(OCc3cccc(Cl)c3)cc2nc1C
**A:** < 100 nM

**Q:** Field: EC50 (Human recombinant MAO-B (Homo sapiens)). Entry: CNCCNC(=O)c1cnc2cc(OCc3cccc(Cl)c3)ccc2c1
**A:** 100 to 1000 nM

**Q:** Field: EC50 (Human recombinant MAO-B (Homo sapiens)). Entry: NC(=O)Cc1cnc2cc(OCc3cccc(C(F)(F)F)n3)cnc2c1
**A:** 100 to 1000 nM

**Q:** Field: EC50 (Human recombinant MAO-B (Homo sapiens)). Entry: CCOC(=O)c1cnc2cc(OCc3ccc(F)c(C(F)(F)F)c3)ccc2c1
**A:** < 100 nM

**Q:** Field: EC50 (Human recombinant MAO-B (Homo sapiens)). Entry: Cc1nc2cc(OCc3ccc(F)cc3)ccc2cc1C(C)(C)O
**A:** < 100 nM
